target: Recombinant human HSD17B13 (Homo sapiens (Human), UniProt Q7Z5P4); assay: HSD17B13 rapid-fire mass spectrometry assay (RF/MS assay); conditions: inhibition of HSD17B13; LTB4 10 μM, NAD+ 0.5 mM, RT 3 h; IC50 ranges A-E
Sequence (Q7Z5P4 20-300): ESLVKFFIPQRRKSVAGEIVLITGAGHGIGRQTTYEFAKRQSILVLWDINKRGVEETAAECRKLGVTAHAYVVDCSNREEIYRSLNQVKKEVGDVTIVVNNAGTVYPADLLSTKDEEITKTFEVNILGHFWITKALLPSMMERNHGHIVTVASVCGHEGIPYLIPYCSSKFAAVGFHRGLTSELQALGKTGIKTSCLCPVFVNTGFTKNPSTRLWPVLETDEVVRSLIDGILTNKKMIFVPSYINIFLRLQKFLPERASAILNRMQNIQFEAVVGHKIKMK
MEASURED QUANTITY: IC50

Consider the reported IC50 for these compounds:
COc1cc(C(=O)O)ccc1NS(=O)(=O)c1csc(C#Cc2ccc(C)cc2)n1; 100 to 500 nM
COc1cc(C(=O)O)c(F)cc1NS(=O)(=O)c1coc(-c2ccc([C@H]3CC[C@@H](C(C)C)CC3)cc2C(F)(F)F)n1; 100 to 500 nM

Qu. State its IC50: COc1cc(C(=O)O)c(F)cc1NS(=O)(=O)c1cnn(-c2ccc(C3CCCCC3)cc2)c1
Ans. 100 to 500 nM

Qu. State its IC50: COc1cc(C(=O)O)ccc1NS(=O)(=O)c1csc(-c2ccc(C3CCC(F)(F)CC3)cc2)n1
Ans. 100 to 500 nM

Qu. State its IC50: CNc1cc(C(=O)O)ccc1NS(=O)(=O)c1csc(-c2ccc(C3CCC(C)(C)CC3)cc2C(F)(F)F)n1
Ans. 1000 to 100000 nM

###

Each entry below carries its recorded pIC50.
target: Recombinant human HSD17B13 (Homo sapiens (Human)); assay: HSD17B13 rapid-fire mass spectrometry assay (RF/MS assay); conditions: inhibition of HSD17B13; LTB4 10 μM, NAD+ 0.5 mM, RT 3 h; IC50 ranges A-E
pIC50: −log10 of the molar value.

Consider the reported pIC50 for these molecules:
O=C(O)c1ccc(NS(=O)(=O)c2csc(-c3ccc(O)cc3)n2)cc1 [Example 63]; 6.00 to 6.30
COc1cc(C(=O)O)ccc1NS(=O)(=O)c1csc(C#Cc2ccncc2)n1 [Example 216]; 6.30 to 7.00
COc1cc(C(=O)O)cc2c1N(S(=O)(=O)c1cnc(-c3ccc(F)cc3)s1)CCC2 [Example 132]; 4.00 to 6.00
COc1cc(C(=O)O)c(F)cc1NS(=O)(=O)c1coc(-c2ccc([C@H]3CC[C@@H](O)CC3)cc2)n1 [Example 623]; 6.30 to 7.00
COc1cc(C(=O)O)ccc1NS(=O)(=O)c1csc(Nc2ccccc2)n1 [Example 163]; 4.00 to 6.00
COc1cc(C(=O)O)c(F)cc1NS(=O)(=O)c1csc(-c2ccc(-c3ccc4[nH]ccc4c3)cc2)n1 [Example 638]; > 7.00
COc1cc(C(=O)O)c(F)cc1NS(=O)(=O)c1csc(-c2ccc(-c3ccc(C(F)(C(F)(F)F)C(F)(F)F)cc3)c(OC(C)C)c2F)n1 [Example 793]; > 7.00
COc1cc(C(=O)O)ccc1NS(=O)(=O)c1csc(-c2ccc3ccccc3c2)n1 [Example 130]; 6.00 to 6.30

Qu. State its pIC50: COc1cc(C(=O)O)c(F)cc1NS(=O)(=O)c1cnc(-c2ccc(C3CCC(C)(C)CC3)cc2)s1 [Example 764]
Ans. > 7.00

Qu. State its pIC50: COc1cc(C(=O)O)ccc1NS(=O)(=O)c1coc(-c2ccc(C3CCC(C)(C)CC3)cc2)n1 [Example 420]
Ans. 6.30 to 7.00

Qu. State its pIC50: CC[C@H]1CC[C@H](c2ccc(-c3nc(S(=O)(=O)Nc4cc(F)c(C(=O)O)cc4OC)c(C)s3)cc2)CC1 [Example 667]
Ans. 6.30 to 7.00

Qu. State its pIC50: O=C(O)C1CCCN(S(=O)(=O)c2cnc(-c3ccc(F)cc3)s2)C1 (stereo not drawn) [Example 65]
Ans. < 4.00

Qu. State its pIC50: COc1cc(C(=O)O)ccc1NS(=O)(=O)c1cnc(-c2ccc(C3=CC(C)(C)CC(C)(C)C3)cc2)s1 [Example 708]
Ans. 6.30 to 7.00

Qu. State its pIC50: COc1cc(C(=O)O)c(F)cc1NS(=O)(=O)c1csc(-c2ccc([C@H]3CC[C@H](C(F)(F)F)CC3)c(F)c2C)n1 [Example 603]
Ans. > 7.00

Qu. State its pIC50: COc1cc(C(=O)O)c(F)cc1NS(=O)(=O)c1ncc(-c2ccc(F)cc2)s1 [Example 614]
Ans. > 7.00

###

Target: Recombinant human HSD17B13 (Homo sapiens (Human), UniProt Q7Z5P4)
Assay: HSD17B13 rapid-fire mass spectrometry assay (RF/MS assay)
Conditions: inhibition of HSD17B13; LTB4 10 μM, NAD+ 0.5 mM, RT 3 h; IC50 ranges A-E
Protocol: HSD17B13 rapid-fire mass spectrometry assay (RF/MS assay). Recombinant human HSD17B13 was expressed and purified from sf9 cells at Charles River Labs (Saffron Walden, UK). […] Leukotriene B4 (335.3) and 12-oxoLeukotriene B4 (333.3) SRM transitions were optimized with Discovery Quant software and extracted ion counts for these analytes were determined. […] By using above method, the inhibition of HSD17B13 was evaluated for the compounds of Formula (I). […]
pIC50: −log10 of the molar value.
MEASURED QUANTITY: pIC50

Consider the reported pIC50 for these compounds:
COc1cc(C(=O)O)c(F)cc1NS(=O)(=O)c1csc(-c2ccc(C3=CCC(C)(C)CC3)cc2-c2ccc(F)cc2)n1 [Example 555]; 6.00 to 6.30
COc1cc(C(=O)O)c(F)cc1NS(=O)(=O)c1csc(-c2ccc(-c3ccc(C(F)(F)F)cc3)cc2)n1 [Example 740]; > 7.00

Qu. State its pIC50: COc1cc(C(=O)O)c(F)cc1NS(=O)(=O)c1coc(-c2ccc(C3=CCC4(CC3)OCCO4)cc2)n1 [Example 617]
Ans. > 7.00

Qu. State its pIC50: COc1cc(C(=O)O)c(F)cc1NS(=O)(=O)c1csc(-c2ccc(C3CCC(C)(C)CC3)c(C(N)=O)c2)n1 [Example 533]
Ans. 6.00 to 6.30

Qu. State its pIC50: COc1cc(C(=O)O)ccc1NS(=O)(=O)c1csc(N2CCCC(Oc3ccccc3)C2)n1 (stereo not shown) [Example 276]
Ans. 4.00 to 6.00

Qu. State its pIC50: CCC[C@H]1CC[C@H](C2CCC(c3nc(S(=O)(=O)Nc4ccc(C(=O)O)cc4OC)cs3)CC2)CC1 (stereo partly shown) [Example 381]
Ans. 6.30 to 7.00

Qu. State its pIC50: COc1cc(C(=O)O)c(F)cc1NS(=O)(=O)c1coc(-c2ccc(C3CCC4(CC3)OCCO4)cc2)n1 [Example 618]
Ans. > 7.00

###

target: Recombinant human HSD17B13 (Homo sapiens (Human), UniProt Q7Z5P4); experiment: HSD17B13 rapid-fire mass spectrometry assay (RF/MS assay); details: inhibition of HSD17B13; LTB4 10 μM, NAD+ 0.5 mM, RT 3 h; IC50 ranges A-E
MEASURED QUANTITY: IC50

COc1cc(C(=O)O)c(F)cc1NS(=O)(=O)c1csc(C#Cc2cccc(Cl)c2)n1; 100 to 500 nM
COc1cc(C(=O)O)ccc1NS(=O)(=O)c1nc(-c2ccc(F)cc2)sc1-c1ccccc1; 1000 to 100000 nM
COc1cc(C(=O)O)ccc1NS(=O)(=O)c1csc(-c2cccc(O)c2)n1; 100 to 500 nM
COc1cc(C(=O)O)ccc1NS(=O)(=O)c1cnc(-c2ccc([C@H]3CC[C@@H](C(F)(F)F)CC3)cc2)s1; < 100 nM

Qu. State its IC50: COc1cc(C(=O)O)c(F)cc1NS(=O)(=O)c1csc(-c2ccc(C3=CCC(C(F)(F)F)CC3)c(OC)c2F)n1 (stereo not shown)
Ans. < 100 nM

Qu. State its IC50: COc1cc(C(=O)O)ccc1NS(=O)(=O)c1csc(N2CCN(c3ccc(C)cc3)CC2)n1
Ans. 1000 to 100000 nM

Qu. State its IC50: COc1cc(C(=O)O)c(F)cc1NS(=O)(=O)c1csc(-c2ccc(-c3ccc(-c4ccc(C5(C(F)(F)F)CC5)cc4)cc3C(F)(F)F)cc2C(F)(F)F)n1
Ans. 100 to 500 nM

###

Each entry below carries its recorded IC50.
biological target: Recombinant human HSD17B13 (Homo sapiens (Human), UniProt Q7Z5P4); assay: HSD17B13 rapid-fire mass spectrometry assay (RF/MS assay); conditions: inhibition of HSD17B13; LTB4 10 μM, NAD+ 0.5 mM, RT 3 h; IC50 ranges A-E

COc1cc(C(=O)O)c(F)cc1NS(=O)(=O)c1csc(-c2ccc(C3CC4CCC3C4)cc2)n1 (stereo not shown) [Example 592]; 100 to 500 nM
COc1cc(C(=O)O)c(F)cc1NS(=O)(=O)c1csc(-c2ccc(-c3ccc(C(F)(F)C(F)(F)F)cc3)cc2)n1 [Example 735]; 100 to 500 nM
COc1cc(C(=O)O)c(F)cc1NS(=O)(=O)c1csc(-c2ccc(CCC(C)C)cc2)n1 [Example 625]; 100 to 500 nM
COc1cc(C(=O)O)ccc1NS(=O)(=O)c1csc(C2=CCC(C)(C)CC2)n1 [Example 454]; 100 to 500 nM
COc1cc(C(=O)O)ccc1NS(=O)(=O)c1csc(C#Cc2ccc(C(C)C)cc2)n1 [Example 189]; < 100 nM

# next molecule below
Qu. State its IC50: COc1cc(C(=O)O)ccc1NS(=O)(=O)c1csc(-c2ccncc2)n1 [Example 100]
Ans. 1000 to 100000 nM

Where do the numbers come from? From patent US12384753B2.
